Measurement protocol: DPPH free radical scavenging assay
Measurement parameters: test compound and DPPH 0.4 mMol in 95% ethanol, thirty minutes; 30 min
Description: The DPPH assay is a chemical assay used to determine free radical scavenging activity. The retinal pieces, liver microsomes and phospholipid oxidation models measure antioxidant activity. […] Free radical scavenging activity was determined by measuring the test compound's ability to quench a ethanol solution of the free radical dye, 1,1-diphenyl-2-picrylhydrazyl, (DPPH). […] Absorbance was continuously recorded on a Perkin-Elmer Lamba 4B spectrophotometer. […]
Answer each item with its documented DPPH (% Quench).
One number for each entry, in %.

Molecule	Measured result
Cc1cc(C(C)(C)C)c(O)c(C(C)(C)C)c1 [BHT]	64
Cc1c(C)c2c(c(C)c1O)CCC(C)(CCN1CCN(C(c3ccc(F)cc3)c3ccc(F)cc3)CC1)O2 (stereo not shown) [Compound No. 1]	99
Cc1c(C)c2c(c(C)c1O)CC[C@@](C)(CCC[C@H](C)CCC[C@H](C)CCCC(C)C)O2 [Vitamin E, α-tocopherol]	87

Consider the record given below.
Data point: Cc1c(C)c2c(c(C)c1O)CCC(C)(CN1CCN(C(c3ccc(F)cc3)c3ccc(F)cc3)CC1)O2 (stereo not shown) [Compound No. 2, dimaleate hemihydrate] ; DPPH (% Quench) = 96

---

Tested on: Liver Microsomes
Measurement protocol: Liver microsome lipid peroxidation assay
Format: biochemical
Measurement parameters: Summary of Activity table
Answer each item with its documented IC50.
Answers are plain numbers, in µM.

Compound	U	IC50
Cc1c(C)c2c(c(C)c1O)CCC(C)(CCN1CCN(C(c3ccc(F)cc3)c3ccc(F)cc3)CC1)O2 (stereo not shown) [Compound No. 1]	µM	1
Cc1cc(C(C)(C)C)c(O)c(C(C)(C)C)c1 [BHT]	µM	1.1
Fc1ccc(C(c2ccc(F)cc2)N2CCN(C/C=C/c3ccccc3)CC2)cc1 [Flunarizine]	µM	27.1

Consider the record given below.
Data point: Cc1c(C)c2c(c(C)c1O)CC[C@@](C)(CCC[C@H](C)CCC[C@H](C)CCCC(C)C)O2 [Vitamin E, α-tocopherol] ; IC50 = 37

---

Answer each item with its documented Singlet Oxygen Quenching Kq.
Measurement protocol: Singlet oxygen quenching
Measurement parameters: 37° C., ethanol/chloroform (50:50), 5 mM NDPO2
Give bare numbers, in M⁻¹ s⁻¹.

A selection of reference data follows.
Compound	Measured result
Cc1c(C)c2c(c(C)c1O)CC[C@@](C)(CCC[C@H](C)CCC[C@H](C)CCCC(C)C)O2	1.2e+08
Cc1c(C)c2c(c(C)c1O)CCC(C)(CN1CCN(C(c3ccc(F)cc3)c3ccc(F)cc3)CC1)O2 (stereo not shown) [Compound No. 2, dimaleate hemihydrate]	1.6e+08

Data point: Fc1ccc(C(c2ccc(F)cc2)N2CCN(C/C=C/c3ccccc3)CC2)cc1 ; Singlet Oxygen Quenching Kq = 5e+06
